System Under Test: Recombinant KAT6A/MOZ (488-778) protein (Homo sapiens (Human), UniProt Q92794)
Sequence (Q92794 488-778): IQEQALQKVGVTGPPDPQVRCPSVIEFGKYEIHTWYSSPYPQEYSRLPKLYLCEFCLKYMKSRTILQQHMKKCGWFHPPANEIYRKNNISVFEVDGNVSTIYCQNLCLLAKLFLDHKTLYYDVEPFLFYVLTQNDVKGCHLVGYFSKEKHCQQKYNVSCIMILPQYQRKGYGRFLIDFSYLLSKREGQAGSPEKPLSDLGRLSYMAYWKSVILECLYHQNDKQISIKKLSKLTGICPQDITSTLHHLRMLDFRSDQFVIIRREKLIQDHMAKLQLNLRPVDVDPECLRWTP
Method: KAT6A AlphaLISA Inhibition Screening Assay
Assay type: biochemical
Protocol Conditions: read-out: Average Kat6A % inhibition @ 10 μM; 10 μM test compound
Assay Endpoint: inhibition at 10 µM (%)

Compound | inhibition at 10 µM (%)
COC(=O)NCc1cnn(Cc2cc3onc(NS(=O)(=O)c4ccccc4OC)c3c3c2CCCO3)c1 [Syn. Ex. 133] | 103
C#CC(=O)NCc1cnn(Cc2cc(OC)c3c(NS(=O)(=O)c4cc(CC)ccc4OCc4nn[nH]n4)noc3c2)c1 [Syn. Ex. 70] | 100
CCc1ccc(OCCN)c(S(=O)(=O)Nc2noc3cc(Cn4cc(CNC(=O)OC)cn4)cc(OC)c23)c1 [Syn. Ex. 75] | 92
C=C(F)C(=O)NCc1cnc(Oc2cc(OC)c3c(NS(=O)(=O)c4cc(CC)ccc4OC)noc3c2)s1 [Syn. Ex. 102] | 100

----------
System Under Test: Recombinant KAT6A/MOZ (488-778) protein (Homo sapiens (Human), UniProt Q92794)
Method: KAT6A AlphaLISA Inhibition Screening Assay
Format: biochemical
Protocol Conditions: read-out: Average Kat6A % inhibition @ 1 μM; 1 μM test compound
Protocol: The Kat6a inhibitory activity of test compounds was determined using an Alpha Screen-based detection method. The assay reactions were conducted in a volume of 10 μL in Alpha Plate, White 384 well plate (cat #6008280, Perkin Elmer). The enzymatic reactions were performed in assay buffer pH 8.0 (50 mM Tris-HCl, 0.1 mM EDTA, 0.01% Tween-20, 1 mM Dithiothreitol, 0.1% BSA (fatty acid free) and 330 nM TSA (Trichostatin A)). […]
Assay Endpoint: inhibition at 1 µM (%)

Molecule | Result Units | inhibition at 1 µM
C=C(F)C(=O)Nc1ccc(Oc2cc(OC)c3c(NS(=O)(=O)c4cc(CC)ccc4OC)noc3c2)nc1 [Syn. Ex. 107] | % | 100
CC#CC(=O)NCc1cnn(Cc2cc(OC)c3c(NS(=O)(=O)c4cc(OC)ccc4OC)noc3c2)c1 [Syn. Ex. 58] | % | 91
C=C(F)C(=O)NCc1cnn(Cc2cc(OC)c3c(NS(=O)(=O)c4cc(CC)ccc4OCCC#N)noc3c2)c1 [Syn. Ex. 84] | % | 100
CCc1ccc(OC)c(S(=O)(=O)Nc2noc3cc(Cn4cc(CNC(=O)OC)cn4)cc(OC)c23)c1 [Syn. Ex. 17] | % | 99
C#CC(=O)N1Cc2cnn(Cc3cc(OC)c4c(NS(=O)(=O)c5cc(Cl)ccc5OC)noc4c3)c2C1 [Syn. Ex. 1] | % | 100
C#CC(=O)Nc1ccc(Oc2cc(OC)c3c(NS(=O)(=O)c4cc(CC)ccc4OC)noc3c2)nc1 [Syn. Ex. 108] | % | 99
COc1ccc(S(=O)(=O)Nc2noc3cc(Cn4cc(CNS(C)(=O)=O)cn4)cc(OC)c23)c(OC)c1 [Syn. Ex. 10] | % | 100
CCc1ccc(OC)c(S(=O)(=O)Nc2noc3cc(Cn4cc(CNC(=O)C(C)F)cn4)cc(OC)c23)c1 (stereo not drawn) [Syn. Ex. 47] | % | 98
C=C(F)C(=O)NCc1cnc(Oc2cc(OC)c3c(NS(=O)(=O)c4cc(CC)ccc4OC)noc3c2)o1 [Syn. Ex. 99] | % | 91
C=C(F)C(=O)NCc1cnn(Cc2cc(OC)c3c(NS(=O)(=O)c4cc(CC)ccc4OCCN4CCOC4=O)noc3c2)c1 [Syn. Ex. 78] | % | 100
CCc1ccc(OC)c(S(=O)(=O)Nc2noc3cc(Cn4cc(CNS(=O)(=O)CCOC)cn4)cc(OC)c23)c1 [Syn. Ex. 18] | % | 97
CCC(=O)N1Cc2cnn(Cc3cc(OC)c4c(NS(=O)(=O)c5ccccc5OC)noc4c3)c2C1 [Syn. Ex. 3] | % | 100
COC(=O)NCc1cnn(Cc2cc3onc(NS(=O)(=O)c4ccccc4OC)c3cc2OC)c1 [Syn. Ex. 145] | % | 108
CC#CC(=O)NCc1cnn(Cc2cc(OC)c3c(NS(=O)(=O)c4ccc(OC)cc4OC)noc3c2)c1 [Syn. Ex. 46] | % | 98
CCc1ccc(OC)c(S(=O)(=O)Nc2noc3cc(Cn4cc(CNC(=O)OC)cn4)c4c(c23)OCCC4)c1 [Syn. Ex. 97] | % | 100
CCc1ccc(OC)c(S(=O)(=O)Nc2noc3cc(Cn4cc(CNC(=O)[C@@H](C)F)cn4)cc(OC)c23)c1 (single isomer, unassigned) [Syn. Ex. 47a] | % | 100
CCc1ccc(OCCN2CCOC2=O)c(S(=O)(=O)Nc2noc3cc(Cn4cc(CNC(=O)OC)cn4)cc(OC)c23)c1 [Syn. Ex. 77] | % | 96
COc1ccc(C(C)C)cc1S(=O)(=O)Nc1noc2cc(Cn3cc(CNS(C)(=O)=O)cn3)cc(OC)c12 [Syn. Ex. 38] | % | 100
C=C(F)C(=O)NCc1cnn(Cc2cc(OC)c3c(NS(=O)(=O)c4cc(CC)ccc4OCCNC(C)=O)noc3c2)c1 [Syn. Ex. 82] | % | 94
C=C(F)C(=O)NCc1cnn(Cc2cc(OC)c3c(NS(=O)(=O)c4cc(CC)ccc4OCCN)noc3c2)c1 [Syn. Ex. 76] | % | 74
C=C(F)C(=O)N1Cc2cnn(Cc3cc(OC)c4c(NS(=O)(=O)c5cc(CC)ccc5OC)noc4c3)c2C1 [Syn. Ex. 13] | % | 99
CCc1ccc(OC)c(S(=O)(=O)Nc2noc3cc(Cn4cc(CNC(N)=O)cn4)cc(OC)c23)c1 [Syn. Ex. 90] | % | 99
C=C(F)C(=O)NCc1cnn(Cc2cc(OC)c3c(NS(=O)(=O)c4cc(C)c(C)cc4OC)noc3c2)c1 [Syn. Ex. 28] | % | 100
CCc1ccc(OCC(=O)N2CCOCC2)c(S(=O)(=O)Nc2noc3cc(Cn4cc(CNC(=O)OC)cn4)cc(OC)c23)c1 [Syn. Ex. 66] | % | 93
CC#CC(=O)NCc1cnn(Cc2cc(OC)c3c(NS(=O)(=O)c4cc(C)c(C)cc4OC)noc3c2)c1 [Syn. Ex. 27] | % | 100
CCc1ccc(OC)c(S(=O)(=O)Nc2noc3cc(Oc4ccc(N)cn4)cc(OC)c23)c1 [Syn. Ex. 109] | % | 95
C=C(F)C(=O)NCc1cnn(Cc2cc(OC)c3c(NS(=O)(=O)c4ccccc4OCc4ccccc4)noc3c2)c1 [Syn. Ex. 36] | % | 93
C#CC(=O)NCc1cnn(Cc2cc(OC)c3c(NS(=O)(=O)c4cc(CC)ccc4OCc4nn[nH]n4)noc3c2)c1 [Syn. Ex. 70] | % | 100

----------
Quick record of pIC50 values for FLAG-Tagged Kat6A (Homo sapiens (Human), UniProt Q92794).
pIC50: −log10 of the molar value.
Assay Endpoint: pIC50

Record excerpt, results attached:
Compound | Assay Value
C=C(F)C(=O)NCc1cnn(Cc2cc(OC)c3c(NS(=O)(=O)c4cc(CC)ccc4OC)noc3c2)c1 [Syn. Ex. 14] | 8.70
COc1cccc(OC)c1S(=O)(=O)Nc1noc2cc(Oc3nccs3)cc(OCF)c12 [reference compound] | 9.00
COC(=O)NCc1cnn(Cc2cc(OC)c3c(NS(=O)(=O)c4cc5c(cc4OC)CCC5)noc3c2)c1 [Syn. Ex. 25] | 8.70

I = COc1cccc(OC)c1S(=O)(=O)Nc1noc2cc(Oc3ccccn3)cc(OC)c12 [Compound 9, WO 2023/088233, reference compound]
II = COc1cccc(OC)c1S(=O)(=O)Nc1noc2cc(Cn3cccn3)cc(OC(F)F)c12 [Claim 83 of WO 2023/088233, reference compound]
III = CC#CC(=O)NCc1cnn(Cc2cc(OC)c3c(NS(=O)(=O)c4cc(CC)ccc4OC)noc3c2)c1 [Syn. Ex. 15]
List items by pIC50 in falling order. # output: labels, in the requested order
I, II, III

----------
System Under Test: Recombinant KAT6A/MOZ (488-778) protein (Homo sapiens (Human))
Method: KAT6A AlphaLISA Inhibition Screening Assay
Assay type: biochemical
Protocol Conditions: read-out: Average Kat6A % inhibition @ 1 μM; 1 μM test compound
Assay Endpoint: inhibition at 1 µM (%)

Record excerpt, results attached:
Compound | System Under Test | Assay Value
CCc1ccc(OCCNC(C)=O)c(S(=O)(=O)Nc2noc3cc(Cn4cc(CNC(=O)OC)cn4)cc(OC)c23)c1 [Syn. Ex. 81] | Recombinant KAT6A/MOZ (488-778) protein (Homo sapiens (Human)) | 91
C#CC(=O)NCc1cnn(Cc2cc(OC)c3c(NS(=O)(=O)c4cc(CC)ccc4OCC#N)noc3c2)c1 [Syn. Ex. 69] | Recombinant KAT6A/MOZ (488-778) protein (Homo sapiens (Human)) | 96
C=C(F)C(=O)NCc1cnn(Cc2cc(OC)c3c(NS(=O)(=O)c4cc(CC)ccc4OC)noc3c2)c1 [Syn. Ex. 14] | Recombinant KAT6A/MOZ (488-778) protein (Homo sapiens (Human)) | 100
C=C(F)C(=O)NCc1cnn(Cc2cc(OC)c3c(NS(=O)(=O)c4ccc(OC)cc4OC)noc3c2)c1 [Syn. Ex. 60] | Recombinant KAT6A/MOZ (488-778) protein (Homo sapiens (Human)) | 93

I = C=C(F)C(=O)NCc1cnn(Cc2cc(OC)c3c(NS(=O)(=O)c4cc(CC)ccc4OCc4ncon4)noc3c2)c1 [Syn. Ex. 73]
II = CC#CC(=O)N1Cc2cn(Cc3cc(OC)c4c(NS(=O)(=O)c5cc(CC)ccc5OC)noc4c3)nc2C1 [Syn. Ex. 12]
Sorting by inhibition at 1 µM in descending order, would I or II appear first? State the label of the item chosen.
I
(I: 100%, II: 38%)
